Entries and their GI50
- Test system: 786-0 renal
- TEST_SUMMARY: NCI tumour cell line growth inhibition, 48 h
VALUE_KIND: GI50

[[record]]
mol_smiles = "C1C[OH+]CCNCC[OH+]CC[OH+]CCN1.O.[Cl-].[Pt+4]"
value_kind = "GI50"
result = "> 100000 nM"

[[record]]
mol_smiles = "COc1cc(/C=C/c2cc(/C=C/c3ccc(O)c(OC)c3)n(C(N)=O)n2)ccc1O"
value_kind = "GI50"
result = "372 nM"

[[record]]
mol_smiles = "CN(c1ccc(Cl)c(Cl)c1)c1cnc2cc(N)cc(N)c2n1"
value_kind = "GI50"
result = "12700 nM"

[[record]]
mol_smiles = "O=C1C(=O)/C(=C/c2ccccc2)CCCCCC/C1=C/c1ccccc1"
value_kind = "GI50"
result = "1820 nM"

[[record]]
mol_smiles = "CCCCc1ccc(NS(=O)(=O)c2cc3c4c(c2)CCN4C(=O)CC3)cc1"
value_kind = "GI50"
result = "17900 nM"

[[record]]
mol_smiles = "COC1=C(C)C(=O)N2[C@@H]1[C@H](c1ccccc1)OC21C=CC(=O)C=C1"
value_kind = "GI50"
result = "2860 nM"

[[record]]
mol_smiles = "CN(C)CCCNc1nc2ccccc2c2c(=O)c3cc(F)ccc3sc12"
value_kind = "GI50"
result = "1470 nM"


---

- System: OVCAR-8 ovarian
- TEST_SUMMARY: NCI tumour cell line growth inhibition, 48 h
VALUE_KIND: TGI

[[record]]
molecule = "COc1cc2c(c(OC)c1OC)CCNC2C1=C(O)COC1=O (centres undefined)"
measured_target = "OVCAR-8 ovarian"
result = "> 100 µM"

[[record]]
molecule = "CCCCCCCCCCCCC(=O)CCCCC(=O)O"
measured_target = "OVCAR-8 ovarian"
result = "39.7 µM"

[[record]]
molecule = "COC1=CC(=O)c2c(c(-c3csc(C)n3)cn2C)C1=O"
measured_target = "OVCAR-8 ovarian"
result = "> 94.8 µM"

[[record]]
molecule = "COC(=O)[C@@H]1CCc2nc3ccccc3c(=O)n21"
measured_target = "OVCAR-8 ovarian"
result = "> 100 µM"

[[record]]
molecule = "CCOC(=O)c1c(Sc2ccc([N+](=O)[O-])cc2[N+](=O)[O-])nc2c3ccccc3ccn12"
measured_target = "OVCAR-8 ovarian"
result = "> 100 µM"

[[record]]
molecule = "CN(C)C1C(CO)OC(n2cnc3c(N)ncnc32)C1O (centres undefined)"
measured_target = "OVCAR-8 ovarian"
result = "> 100 µM"

[[record]]
molecule = "COC1=C(C)C(=O)N2[C@@H]1[C@H](c1ccccc1)OC21C=CC(=O)C=C1"
measured_target = "OVCAR-8 ovarian"
result = "> 36.5 µM"

[[record]]
molecule = "O=c1[nH]c2cc([N+](=O)[O-])ccc2nc1/C(=N/Nc1ccccc1)C(O)c1ccc(Cl)cc1Cl (centres undefined)"
measured_target = "OVCAR-8 ovarian"
result = "> 100 µM"

[[record]]
molecule = "O=C(O)[C@@H](NS(=O)(=O)c1ccc(F)cc1)c1ccccc1"
measured_target = "OVCAR-8 ovarian"
result = "> 100 µM"


---

- Tested on: U251 CNS
VALUE_KIND: GI50

[[record]]
compound = "COc1cc(C2CC(c3ccc(SC)cc3)=NN2C(C)=O)cc(OC)c1OC (stereo not drawn)"
measured_target = "U251 CNS"
result = "7270 nM"

[[record]]
compound = "C=C(C)[C@@H]1/C=C(/C(C)C)CC[C@@]2(C)OC2CC[C@H](C)CC1=O (stereo partly drawn)"
measured_target = "U251 CNS"
result = "27600 nM"

[[record]]
compound = "O=[N+]([O-])c1cc([N+](=O)[O-])c(NN=C(c2ccc(O)cc2)c2ccc(O)cc2)cc1Cl"
measured_target = "U251 CNS"
result = "1870 nM"

[[record]]
compound = "Cn1cc(-c2csc(-c3c[nH]c4ccc(F)cc34)n2)c2cccnc21"
measured_target = "U251 CNS"
result = "1520 nM"

[[record]]
compound = "COc1cc(/C=C/[N+](=O)[O-])c([N+](=O)[O-])cc1OC"
measured_target = "U251 CNS"
result = "1920 nM"

[[record]]
compound = "CCOC(=O)C(CC(C)C)NC(=O)C(Cc1ccc(N(CCCl)CCCl)cc1)NC(C)=O (stereo not drawn)"
measured_target = "U251 CNS"
result = "10200 nM"

[[record]]
compound = "COc1cc(/C=C/c2cc(/C=C/c3ccc(O)c(OC)c3)n(C(N)=O)n2)ccc1O"
measured_target = "U251 CNS"
result = "526 nM"

[[record]]
compound = "O=C1NC(=O)/C(=C/c2ccc3ncccc3c2)S1"
measured_target = "U251 CNS"
result = "> 25000 nM"

